Molecular target: Recombinant Human NF-kappaB-Inducing Kinase (NIK/MAP3K14) (Homo sapiens, UniProt Q99558)
Sequence (Q99558 whole entry): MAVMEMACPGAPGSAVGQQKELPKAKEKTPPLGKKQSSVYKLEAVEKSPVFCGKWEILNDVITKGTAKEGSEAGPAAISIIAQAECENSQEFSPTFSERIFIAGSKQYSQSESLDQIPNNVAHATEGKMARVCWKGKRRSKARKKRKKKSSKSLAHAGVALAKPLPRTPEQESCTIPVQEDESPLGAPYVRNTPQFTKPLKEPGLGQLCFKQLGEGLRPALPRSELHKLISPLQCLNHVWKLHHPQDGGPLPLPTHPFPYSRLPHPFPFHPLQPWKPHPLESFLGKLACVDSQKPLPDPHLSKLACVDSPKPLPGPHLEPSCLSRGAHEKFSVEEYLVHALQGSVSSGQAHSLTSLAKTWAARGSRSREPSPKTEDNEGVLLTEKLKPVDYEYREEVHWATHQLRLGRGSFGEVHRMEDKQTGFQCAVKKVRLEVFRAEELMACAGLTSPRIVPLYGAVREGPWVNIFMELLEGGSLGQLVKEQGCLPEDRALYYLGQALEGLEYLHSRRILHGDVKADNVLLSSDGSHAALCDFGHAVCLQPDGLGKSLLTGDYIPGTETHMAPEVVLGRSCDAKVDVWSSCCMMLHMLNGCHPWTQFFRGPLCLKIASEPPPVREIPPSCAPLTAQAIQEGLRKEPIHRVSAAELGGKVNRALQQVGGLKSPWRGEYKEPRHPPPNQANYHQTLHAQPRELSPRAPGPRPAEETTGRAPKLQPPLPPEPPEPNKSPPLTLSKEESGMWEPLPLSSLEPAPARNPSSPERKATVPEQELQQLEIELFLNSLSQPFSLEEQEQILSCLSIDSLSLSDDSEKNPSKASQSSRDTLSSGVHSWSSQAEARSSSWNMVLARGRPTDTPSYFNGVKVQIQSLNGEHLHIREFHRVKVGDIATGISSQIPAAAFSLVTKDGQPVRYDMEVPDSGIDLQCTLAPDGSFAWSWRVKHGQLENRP
Test: Biological Assay A2: inhibition of auto-phosphorylation of recombinant human NIK/MAP3K14 (AlphaScreen)
Format: biochemical
Conditions: auto-phosphorylation; averaged over all measurements on all batches; read-out: αscreen IC50
Experimental: Inhibition of Auto-Phosphorylation of Recombinant Human NF-kappaB-Inducing Kinase (NIK/MAP3K14) Activity (AlphaScreen®) NIK/MAP3K14 auto-phosphorylation activity was measured using the AlphaScreen® (αscreen) format (Perkin Elmer). All compounds tested were dissolved in dimethyl sulfoxide (DMSO) and further dilutions were made in assay buffer. […] Protein A Acceptor and Glutathione-Donor beads were added before reading using an EnVision® Multilabel Plate Reader (Perkin Elmer). […]
test_readout: IC50 (nM)

Illustrative cases are given below, each with its answer.
INSERT INTO measurements (molecule, reading) VALUES
  ('CC(C)C(C)(O)C#Cc1cc2c(-c3ccnc(N)n3)cn(CC(C)(C)O)c2cn1 (centres unmarked)', 110),
  ('CCC(O)(C#Cc1cc2c(-c3ccnc(N)n3)cn(CCOC)c2cn1)CC', 150),
  ('CC(C)(O)C#Cc1cc2c(-c3ccnc(N)n3)cn(C3COC3)c2cn1', 54),
  ('CN1CCC(n2cc(-c3nc(N)ncc3F)c3cc(C#CC(C)(O)C4CC4)ncc32)C1 (centres unmarked)', 88),
  ('CC(O)(C#Cc1cc2c(-c3nc(N)ncc3F)cn(C3COC3)c2cn1)C1CC1 (single isomer, unassigned) [Compound 121]', 680);

[I] [2H]C([2H])([2H])C(O)(C#Cc1cc2c(-c3nc(N)ncc3F)cn(C3CN(C4CC4)C3)c2cn1)C([2H])([2H])[2H]
[II] CC1(Cn2cc(-c3nc(N)ncc3F)c3cc(C#CC(C)(O)C4CC4)ncc32)COC1 (centres unmarked)
Query: Select one: I or II . Criterion: greater recorded IC50. Please indicate the selected item by its label.
Response: I

[P] CC(C)n1cc(-c2nc(N)ncc2Cl)c2cc(C#CC(C)(O)c3nccs3)ncc21 (centres unmarked)
[Q] CC(C)(O)C#Cc1cc2c(-c3ccnc(N)n3)cn(CCN3CCOCC3)c2cn1
Query: Select one: P or Q . Criterion: greater recorded IC50. Please indicate the selected item by its label.
Response: Q

###

A collection of compounds and their measured pEC50
test system: L-363 cells; assay: Biological Assay C: antiproliferative activity on L-363 cells (CellTiter-Glo); assay type: cell-based, human; conditions: Homo sapiens, L-363, 72 h, 72 hr treatment; averaged values
Expect pEC50 as a plain number equal to -log10 of the molar concentration.

Illustrative cases are given below, each with its answer.
INSERT INTO assay_data (compound, test_readout, reading) VALUES
  ('COCCCn1cc(-c2nc(N)ncc2F)c2cc(C#CC(C)(O)C3CC3)ncc21 (centres unmarked)', 'pEC50', 6.96),
  ('CC(C)(O)C#Cc1cc2c(-c3ccnc(N)n3)cn(CCN3CCOCC3)c2cn1', 'pEC50', 5.72),
  ('Cc1nc(C#CC(C)(O)C2CC2)cc2c(-c3nc(N)ncc3F)cn(C3COC3)c12 (centres unmarked)', 'pEC50', 7.18),
  ('COCCn1cc(-c2nc(N)ncc2Cl)c2cc(C#CC(C)(O)c3nccs3)ncc21 (centres unmarked)', 'pEC50', 5.30),
  ('CC(C)(O)C#Cc1cc2c(-c3nc(N)ncc3F)cn(CC(C)(C)O)c2cn1', 'pEC50', 7.29);

Shifting focus to the compound that follows.
Query: Which pEC50 value is on record for Cc1cnc(N)nc1-c1c[nH]c2cnc(C#CC(C)(C)O)cc12 ?
Response: 5.89
